# EXPERIMENT NOTES: qHTS for differential inhibitors of proliferation of Plasmodium falciparum line 7G8 (AID 1815);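 further: parasite growth measured after three days of incubation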
# CONDITION: Plasmodium falciparum 7G8 proliferation inhibition; series mostly up to 28.7 µM
Inconclusive results are not listed. Calls of active or inactive are those of the source. The call rests on the fitted dose curve; in most records, active means well fitted curve in the direction sought with a large enough effect; inconclusive means small, poorly fitted or top-dose-only effect, or another doubt; inactive means no such curve, though single readings can be large or run the other way.
Result category, one only: active, inactive

Dear colleague, could you share the recorded outcome for CC(CCc1ccccc1)NC(C)C(O)c1ccc(O)cc1 (stereo not given) when you have a moment? active

Same thing, different compound: C=C(C)[C@H]1Cc2c(ccc3c2O[C@@H]2COc4cc(OC)c(OC)cc4[C@@H]2C3=O)O1 active

Then what about the compound NCC(CC(=O)O)c1ccc(Cl)cc1 (stereo not given) ? inactive

// next record c1ccc2c(c1)OCC(C1=NCCN1)O2 (stereo not given) active

Lookup CC(COc1ccccc1)N(CCCl)Cc1ccccc1 (stereo not given) active

Another: O=c1c(O)c(-c2ccc(O)c(O)c2)oc2cc(O)cc(O)c12 active

Queued: NN=C(N)N inactive

Continue with Cc1cccc(C)c1NC1=NCCCS1 active

Next compound up: O=C1NCN(c2ccccc2)C12CCN(CC1COc3ccccc3O1)CC2 (stereo not given) active

Next record, please: CN(C)CCC=C1c2ccccc2CCc2ccccc21 active

Likewise for OCCN1CCN(CCCN2c3ccccc3Sc3ccc(C(F)(F)F)cc32)CC1 ? active

Next record, please: O=c1[nH]c2ccccc2n1C1CCN(CCCC(c2ccc(F)cc2)c2ccc(F)cc2)CC1 active

What do you get for Cc1c(OCC(F)(F)F)ccnc1CS(=O)c1nc2ccccc2[nH]1 (stereo not given) ? active

Now give it for CNCC(O)c1ccc(O)cc1 (stereo not given) too. inactive

Okay, and CCCC(C)(COC(N)=O)COC(=O)NC(C)C (stereo not given) ? inactive
